The values you see were collected from PubChem BioAssay (NCATS).

- assay.target: Thyroid hormone receptor beta (Homo sapiens) (UniProt P10828)
- Sequence (P10828 whole entry, looked up): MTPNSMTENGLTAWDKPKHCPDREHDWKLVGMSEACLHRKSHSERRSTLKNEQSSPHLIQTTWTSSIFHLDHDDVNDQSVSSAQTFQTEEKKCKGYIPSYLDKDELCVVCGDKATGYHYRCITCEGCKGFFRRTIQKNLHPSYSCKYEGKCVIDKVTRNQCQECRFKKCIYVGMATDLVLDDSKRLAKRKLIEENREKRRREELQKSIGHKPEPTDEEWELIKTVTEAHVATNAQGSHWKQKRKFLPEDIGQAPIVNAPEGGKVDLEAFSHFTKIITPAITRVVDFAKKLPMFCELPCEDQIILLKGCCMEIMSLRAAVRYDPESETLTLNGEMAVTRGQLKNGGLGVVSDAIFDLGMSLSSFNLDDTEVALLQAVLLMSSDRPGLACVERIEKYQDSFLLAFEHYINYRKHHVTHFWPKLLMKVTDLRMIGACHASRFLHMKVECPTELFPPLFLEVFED
- procedure.details: qHTS assay for small molecule antagonists of thyroid hormone receptor beta signaling (AID 588547);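 also: cells stimulated with 0.4 nM T3 agonist during compound exposure; series mostly up to about 77 µM; % is scaled to controls: 0 for no effect and ±100 for the full control effect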
- condition.context: TR-UAS-bla HEK293, beta-lactamase ratio, antagonist mode, 18 h
Inconclusive results are not listed.
Quick reference for activity change % (negative = inhibition) among some molecules
parameter: activity change % (negative = inhibition) (%)

molecule	assay.target	measure.unit	observed
C=CC(=C)C	Thyroid hormone receptor beta (Homo sapiens) (UniProt P10828)	%	3.52
CCS(=O)CCSP(=O)(OC)OC (stereo unspecified)	Thyroid hormone receptor beta (Homo sapiens) (UniProt P10828)	%	-3.19
BrCCBr	Thyroid hormone receptor beta (Homo sapiens) (UniProt P10828)	%	-9.28
C=C(C)C(=O)OCC1CO1 (stereo unspecified)	Thyroid hormone receptor beta (Homo sapiens) (UniProt P10828)	%	6.72
O=NN(CCO)CCO	Thyroid hormone receptor beta (Homo sapiens) (UniProt P10828)	%	-10.8
ClC1=C(Cl)C2(Cl)C3C4CC(C5OC45)C3C1(Cl)C2(Cl)Cl (stereo unspecified)	Thyroid hormone receptor beta (Homo sapiens) (UniProt P10828)	%	-28.8
CC(O)CCl (stereo unspecified)	Thyroid hormone receptor beta (Homo sapiens) (UniProt P10828)	%	-4.17
CCSC(=O)Cl	Thyroid hormone receptor beta (Homo sapiens) (UniProt P10828)	%	-1.08
c1ccc2c(c1)CCCC2	Thyroid hormone receptor beta (Homo sapiens) (UniProt P10828)	%	3.81
O=C(Cl)C(Cl)(Cl)Cl	Thyroid hormone receptor beta (Homo sapiens) (UniProt P10828)	%	-5.79
ClCBr	Thyroid hormone receptor beta (Homo sapiens) (UniProt P10828)	%	5.81
Clc1nc(Cl)nc(Cl)n1	Thyroid hormone receptor beta (Homo sapiens) (UniProt P10828)	%	-1.04
OCC(Br)CBr (stereo unspecified)	Thyroid hormone receptor beta (Homo sapiens) (UniProt P10828)	%	1.09
CCCCCCCC(=O)Cl	Thyroid hormone receptor beta (Homo sapiens) (UniProt P10828)	%	11.9
C[C@]12CC[C@H]3[C@@H](CCC4=CC(=O)CC[C@@]43C)[C@@H]1CC[C@@H]2O	Thyroid hormone receptor beta (Homo sapiens) (UniProt P10828)	%	14.5
O=C(O)COc1cc(Cl)c(Cl)cc1Cl	Thyroid hormone receptor beta (Homo sapiens) (UniProt P10828)	%	7.44
CCCCSP(=O)(SCCCC)SCCCC	Thyroid hormone receptor beta (Homo sapiens) (UniProt P10828)	%	-17.4
CNC(=O)N(C)c1nnc(C(C)(C)C)s1	Thyroid hormone receptor beta (Homo sapiens) (UniProt P10828)	%	-7.26
Clc1ccc2ccccc2c1	Thyroid hormone receptor beta (Homo sapiens) (UniProt P10828)	%	-12
C=CCc1ccc(OC)cc1	Thyroid hormone receptor beta (Homo sapiens) (UniProt P10828)	%	-7.69
C=CCc1ccc2c(c1)OCO2	Thyroid hormone receptor beta (Homo sapiens) (UniProt P10828)	%	-3.5
C=C(Cl)Cl	Thyroid hormone receptor beta (Homo sapiens) (UniProt P10828)	%	-6
S=C=Nc1cccc2ccccc12	Thyroid hormone receptor beta (Homo sapiens) (UniProt P10828)	%	-1.91
c1ccc(OP(Oc2ccccc2)Oc2ccccc2)cc1	Thyroid hormone receptor beta (Homo sapiens) (UniProt P10828)	%	5.76
O=S1OCC2C(CO1)C1(Cl)C(Cl)=C(Cl)C2(Cl)C1(Cl)Cl (stereo unspecified)	Thyroid hormone receptor beta (Homo sapiens) (UniProt P10828)	%	-1.54
N#Cc1c(Cl)cccc1Cl	Thyroid hormone receptor beta (Homo sapiens) (UniProt P10828)	%	-4.17
CCCC(=O)Cl	Thyroid hormone receptor beta (Homo sapiens) (UniProt P10828)	%	3.8
CCN(CC)c1ccccc1	Thyroid hormone receptor beta (Homo sapiens) (UniProt P10828)	%	-7.69
ClC1=C(Cl)C2(Cl)C3C4C=CC(C4)C3C1(Cl)C2(Cl)Cl (stereo unspecified)	Thyroid hormone receptor beta (Homo sapiens) (UniProt P10828)	%	-26.2
CCOc1ccc(N)cc1	Thyroid hormone receptor beta (Homo sapiens) (UniProt P10828)	%	-6.64
C=CC(=O)OCC	Thyroid hormone receptor beta (Homo sapiens) (UniProt P10828)	%	-5
